Values were extracted from ChEMBL document CHEMBL1126179.

# ASSAY_COMMENT: In vitro effective dose which provides 50% protection of ATH-8 cells against the cytopathic effect of HIV
# Format: functional
# SETUP_CONDITIONS: Homo sapiens, read-out: ED50 (the source's name)
pEC50: −log10 of the molar value.
READOUT: pEC50

SMILES_DATA	pEC50
Cc1cn([C@H]2CO[C@@H](CO)C2)c(=O)[nH]c1=O	< 4.00
Nc1ccn([C@H]2CO[C@@H](CO)C2)c(=O)n1	< 4.00

--- query ---
Entry "OC[C@H]1C[C@@H](n2cnc3c(O)ncnc32)CO1" : reported pEC50 = ?
< 4.00

---

# ASSAY_COMMENT: In vitro effective dose which provides 50% protection of ATH-8 cells against the cytopathic effect of HIV; range 10-50 uM
# Assay type: functional
# SETUP_CONDITIONS: Homo sapiens, read-out: ED50 (the source's name)
READOUT: EC50 (µM)
All answers are understood in µM, so give the number only.

Entry "Nc1nc(O)c2ncn([C@H]3CO[C@@H](CO)C3)c2n1" : reported EC50 = ?
10
